# studySystem: T1, His-tagged P3028 peptide (PGE73) (human)
# T1 construct: albumin-derived peptide, in solution at 0.5 ug/mL; not shown: His-tag
# T1 peptide: VFDEFKPLVEEPQNLIK
# experimentSummary: PEPSCAN ELISA, peptide on card
RAMPO Score by entry:
Respond with the number and no other words.

INSERT INTO results (binder, propertymeasured, quantitativereadout) VALUES
  ('KKLDTFFVKLSTFTER [SEQ ID NO: 358 KKLDTFFVKLSTFTER]', 'RAMPO Score', 437),
  ('KKLDTFFGKLSLFTER [SEQ ID NO: 327 KKLDTFFGKLSLFTER]', 'RAMPO Score', 379),
  ('KKLDTFFVKLSLFLER [SEQ ID NO: 380 KKLDTFFVKLSLFLER]', 'RAMPO Score', 360);

Task item: I would be grateful if you could share the reported RAMPO Score for KKLDTNFVKLSLFTER [SEQ ID NO: 316 KKLDTNFVKLSLFTER] .
Reply: 446

Task item: I would be grateful if you could share the reported RAMPO Score for KKLDTFFVKISLFTER [SEQ ID NO: 335 KKLDTFFVKISLFTER] .
Reply: 415

Task item: I would be grateful if you could share the reported RAMPO Score for KKLDTFFVKLSLFTEF [SEQ ID NO: 388 KKLDTFFVKLSLFTEF] .
Reply: 297

Task item: I would be grateful if you could share the reported RAMPO Score for KKLDRFFVKLSLFTER [SEQ ID NO: 309 KKLDRFFVKLSLFTER] .
Reply: 430

Where these numbers come from: patent US20170298096A1
